Target: HLA-A*11:01 (recombinant MHC class I molecule) (human)
Assay: REVEAL MHC-peptide binding assay, recombinant HLA-A*11:01
Catalogue of In Vitro Score values

Use the examples below as a reference point.
1. VAFIIFWVA [Synthetic peptide VAFIIFWVA]
2.8 score, % of positive control peptide
2. FWVQRGRKK [Synthetic peptide FWVQRGRKK]
5.7 score, % of positive control peptide
3. FWVSRGRKK [Synthetic peptide FWVSRGRKK]
6.3 score, % of positive control peptide

Q: Would you kindly share the measured In Vitro Score for WVHRGRKKL [Synthetic peptide WVHRGRKKL] ?
Ans: 5.6 score, % of positive control peptide

Q: Would you kindly share the measured In Vitro Score for WVKRGRKKL [Synthetic peptide WVKRGRKKL] ?
Ans: 4.8 score, % of positive control peptide

Q: Would you kindly share the measured In Vitro Score for IFWVQRGSK [Synthetic peptide IFWVQRGSK] ?
Ans: 103 score, % of positive control peptide
